# test_target: T1, biotin-labeled CD47 extracellular domain protein (CD47-ECD) (UniProt Q08722 19-139, limits assumed, biotin-labeled (sites not given))
# T1 construct: extracellular domain; also called CD47 protein
# T1 sequence (Q08722 19-139 limits assumed): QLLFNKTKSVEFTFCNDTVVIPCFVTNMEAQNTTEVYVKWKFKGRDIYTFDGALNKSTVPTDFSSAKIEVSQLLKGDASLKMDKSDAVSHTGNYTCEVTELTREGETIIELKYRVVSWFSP
# protocol: blocking ELISA, biotin-CD47-ECD on coated SIRPα-hFc; Ab 8 nM
# if measured OD450 nm of CD47 bound to SIRPα < 0.08: Satisfied  # else: Not satisfied

Please review the entries below; each comes with its answer.
[[record]]
binder = "54G8G6 (antibody, V domains shown, Murine hybridoma antibody purified on protein G) VH: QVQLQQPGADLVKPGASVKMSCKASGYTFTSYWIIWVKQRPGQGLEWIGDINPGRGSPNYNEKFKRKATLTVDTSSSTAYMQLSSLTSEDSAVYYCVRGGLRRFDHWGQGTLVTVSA VL: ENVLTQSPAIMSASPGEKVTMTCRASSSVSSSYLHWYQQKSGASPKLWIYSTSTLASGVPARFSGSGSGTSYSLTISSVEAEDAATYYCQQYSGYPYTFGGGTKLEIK"
label = "Not satisfied"

[[record]]
binder = "4D10B11 (antibody, V domains shown, Murine hybridoma antibody purified on protein G) VH: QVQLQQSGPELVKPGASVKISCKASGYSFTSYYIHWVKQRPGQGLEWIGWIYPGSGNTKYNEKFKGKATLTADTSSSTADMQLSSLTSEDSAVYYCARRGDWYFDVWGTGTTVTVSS VL: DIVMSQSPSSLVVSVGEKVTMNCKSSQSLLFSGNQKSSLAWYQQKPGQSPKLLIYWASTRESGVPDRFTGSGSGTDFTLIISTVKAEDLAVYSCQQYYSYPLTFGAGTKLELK"
label = "Satisfied"


Please look at the following binder next.
Lab note: OD450 nm of CD47 bound to SIRPα threshold 0.08. Does this binder come in strictly under it? 95E2D10 (antibody, V domains shown, Murine hybridoma antibody purified on protein G) VH: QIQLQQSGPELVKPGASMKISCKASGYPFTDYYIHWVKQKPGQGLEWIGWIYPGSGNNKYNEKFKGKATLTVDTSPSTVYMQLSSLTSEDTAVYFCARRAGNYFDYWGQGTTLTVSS VL: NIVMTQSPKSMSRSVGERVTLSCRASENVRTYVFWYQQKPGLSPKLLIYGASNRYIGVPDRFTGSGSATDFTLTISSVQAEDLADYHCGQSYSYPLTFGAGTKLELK
Not satisfied
